Would you kindly list pIC50 for each of these molecules?
- systemTested: DNA topoisomerase 4 subunit A (Staphylococcus aureus, UniProt P0C1U9)
- Sequence (P0C1U9 whole entry): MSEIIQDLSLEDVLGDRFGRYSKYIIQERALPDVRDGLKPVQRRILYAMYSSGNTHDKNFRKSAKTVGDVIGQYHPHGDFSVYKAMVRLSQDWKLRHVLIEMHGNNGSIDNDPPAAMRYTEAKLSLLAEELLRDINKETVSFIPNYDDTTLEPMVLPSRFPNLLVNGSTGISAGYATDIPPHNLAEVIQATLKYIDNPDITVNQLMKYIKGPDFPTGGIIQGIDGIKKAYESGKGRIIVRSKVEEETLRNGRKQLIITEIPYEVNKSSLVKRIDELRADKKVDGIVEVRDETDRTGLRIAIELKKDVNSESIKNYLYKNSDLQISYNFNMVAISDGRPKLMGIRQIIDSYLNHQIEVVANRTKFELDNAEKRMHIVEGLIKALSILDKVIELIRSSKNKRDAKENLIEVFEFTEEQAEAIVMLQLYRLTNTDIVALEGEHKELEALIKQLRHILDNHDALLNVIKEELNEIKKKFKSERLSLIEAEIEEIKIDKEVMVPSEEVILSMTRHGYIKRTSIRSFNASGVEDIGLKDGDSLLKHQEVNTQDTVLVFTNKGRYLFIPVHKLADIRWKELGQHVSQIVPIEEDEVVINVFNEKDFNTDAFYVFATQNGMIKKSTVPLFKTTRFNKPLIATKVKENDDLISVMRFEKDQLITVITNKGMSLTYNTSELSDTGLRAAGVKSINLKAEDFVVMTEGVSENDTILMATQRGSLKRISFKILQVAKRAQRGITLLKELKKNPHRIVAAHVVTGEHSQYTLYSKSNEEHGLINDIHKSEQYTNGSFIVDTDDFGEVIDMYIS
- assayInfo: Inhibition of Staphylococcus aureus ATCC 29213 DNA topoisomerase 4 subunit ParC assessed as reduction in decatenation of kinetoplast DNA incubated for 30 mins by ethidium bromide staining based gel electrophoresis method
One number for each entry, as −log10 of the molar value.

Please review the entries below; each comes with its answer.
O=c1cc(NC[C@@H](O)CN2CCN(c3nccc4ccc(F)cc34)CC2)c2ccccc2o1; 5.52
COc1ccc2ccnc(N3CCN(CCCNc4cc(=O)oc5ccccc45)CC3)c2c1; 5.17

For each of the items listed, what is its pIC50?
1. O=C(NCCCN1CCN(c2nccc3ccccc23)CC1)c1ccccc1
2. O=C(CCN1CCN(c2nccc3ccc(F)cc23)CC1)Nc1cc(=O)oc2ccccc12
3. O=c1cc(NCCCN2CCN(c3nccc4ccc(Cl)cc34)CC2)c2ccccc2o1
4. O=c1cc(NCCCN2CCN(c3nccc4ccc(F)cc34)CC2)c2ccccc2o1
5. O=c1cc(NCCCN2CCN(c3nccc4ccccc34)CC2)c2ccccc2o1
6. O=c1cc(NCCCN2CCN(c3nccc4ccccc34)CC2)c2cc(Cl)ccc2o1

Response line:
1: 3.31; 2: 4.40; 3: 5.25; 4: 4.93; 5: 4.05; 6: 5.26
